Here, compounds appear alongside IC50 reported for Prostaglandin G/H synthase 1 (Ovis aries, UniProt P05979) in the literature.
Criterion: IC50 strictly less than 30 µM. Met: Satisfied. Not met: Not satisfied.

compound="O=C1Nc2ccc(F)cc2C12CC(c1ccc(Br)cc1)=NN2 (stereo not given)" group_label="Not satisfied"
compound=CS(=O)(=O)c1ccc(-c2cc([N+](=O)[O-])sc2-c2ccc(F)cc2)cc1 group_label="Not satisfied"
compound=Cc1c(-c2ccccc2)c(-c2ccc(S(C)(=O)=O)cc2)nc2ccccc12 group_label=Satisfied
compound=NS(=O)(=O)c1ccc(-n2nc(C(=O)NC3CCCCC3)nc2-c2ccccc2)cc1 group_label="Not satisfied"
compound=CS(=O)(=O)Nc1ccc(-c2cc(C(F)(F)F)nn2-c2ccc(F)cc2)cc1 group_label=Satisfied
compound=CCSc1ccc(-c2cc(C(F)(F)F)nn2-c2ccc(S(N)(=O)=O)c(CO)c2)cc1 group_label="Not satisfied"
compound=Cc1cc(-c2ccccc2)n(C(=O)C(C(=O)n2nc(C)cc2-c2ccccc2)N2C(=O)c3ccccc3S2(=O)=O)n1 group_label=Satisfied
compound=CC(=O)Oc1ccccc1SCCCCCCBr group_label=Satisfied

Just wondering, is IC50 of `NS(=O)(=O)c1ccc(-n2nc(C(F)(F)F)cc2-c2ccccc2)cc1CO` below 30 µM? Not satisfied

Input `CC(=O)Oc1ccccc1SCCCCCC(=O)O` Not satisfied

Try this compound too: `CC(=O)Nc1ccc(-c2nc(-c3ccc(S(C)(=O)=O)cc3)c(-c3ccccc3)[nH]2)cc1` Satisfied

Input `COC1(c2cccc(CN(c3cc(Cl)ccc3OCc3ccccc3)S(C)(=O)=O)c2)CCOCC1` Not satisfied

Same question, O=C(COc1ccc(N2C(=O)CSC2c2ccccc2)cc1)Nc1ccc(Cl)cc1 (stereo not given) this time Not satisfied

Also, Cc1ccc(/C=N/C2=NN3C(=O)CSC3S2)cc1 (stereo not given) please. Not satisfied
